Sourced from the Human Domainome abundance scans (Beltran et al. 2025)

B1: Gamma-crystallin D, residues 90 to 170; numbered along this chain, P07320 (parent)
chain: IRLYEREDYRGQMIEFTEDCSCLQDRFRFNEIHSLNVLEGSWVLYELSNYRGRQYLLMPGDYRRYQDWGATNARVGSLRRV

- Variants of: B1
- protocolSummary: abundance fitness (aPCA) (normalised: wild type 0, dead -1); higher = more abundant; growth selection in yeast, the domain comes from the species named
- measurementSetup: Homo sapiens
endpoint: abundance fitness

alteration	result
Y4N	0.02
C22L	-0.049
I14K	-0.092
L3V	0.076
R26G	-0.018
